Target: GABA-ρ1 receptors (Homo sapiens, UniProt P24046)
Construct: expressed in transfected cells; host or cells: Xenopus laevis oocytes injected with cRNA
Sequence (P24046 22-479): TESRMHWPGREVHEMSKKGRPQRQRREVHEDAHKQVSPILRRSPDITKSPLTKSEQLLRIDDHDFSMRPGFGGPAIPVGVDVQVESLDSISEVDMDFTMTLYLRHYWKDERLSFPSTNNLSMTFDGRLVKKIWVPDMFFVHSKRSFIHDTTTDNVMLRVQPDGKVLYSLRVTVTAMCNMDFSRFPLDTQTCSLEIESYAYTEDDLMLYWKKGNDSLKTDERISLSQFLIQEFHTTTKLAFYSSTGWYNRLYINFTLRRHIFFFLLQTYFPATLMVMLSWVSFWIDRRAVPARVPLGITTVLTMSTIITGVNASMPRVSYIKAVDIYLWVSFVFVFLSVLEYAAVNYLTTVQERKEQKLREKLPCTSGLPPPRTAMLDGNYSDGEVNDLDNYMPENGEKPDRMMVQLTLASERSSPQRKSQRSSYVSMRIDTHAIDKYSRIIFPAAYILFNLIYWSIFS
Experiment: Two-electrode voltage-clamp, co-application of ligand with GABA EC50 at GABA-ρ1 receptors (additive/inhibition)
Assay type: cell-based
Conditions: co-applied with GABA EC50; % of GABA EC50 response
Please go through the items and note down their GABA-ρ1 Additive (%).
Answers are plain numbers, in %.

Recorded GABA-ρ1 Additive (%), per entry:
- compound.smiles: "NCCCCC(=O)O"
  GABA-ρ1 Additive (%): 125
- compound.smiles: "O=C(O)C1=CCNCC1"
  GABA-ρ1 Additive (%): 135
- compound.smiles: "NCC(=O)O"
  GABA-ρ1 Additive (%): 170
- compound.smiles: "NCCC(=O)O"
  GABA-ρ1 Additive (%): 120
- compound.smiles: "O=C(O)Cc1c[nH]cn1"
  GABA-ρ1 Additive (%): 115

QUERY: Which measured GABA-ρ1 Additive (%) value corresponds to NCc1cc(=O)[nH]o1 ?
RESULT: 125

----------
Please go through the items and note down their % of GABA EC50 response when co-applied with 10 µM ligand.
Target: GABA-ρ2 receptors (Homo sapiens, UniProt P28476)
Construct: expressed in transfected cells; host or cells: Xenopus laevis oocytes injected with cRNA
Sequence (P28476 21-465): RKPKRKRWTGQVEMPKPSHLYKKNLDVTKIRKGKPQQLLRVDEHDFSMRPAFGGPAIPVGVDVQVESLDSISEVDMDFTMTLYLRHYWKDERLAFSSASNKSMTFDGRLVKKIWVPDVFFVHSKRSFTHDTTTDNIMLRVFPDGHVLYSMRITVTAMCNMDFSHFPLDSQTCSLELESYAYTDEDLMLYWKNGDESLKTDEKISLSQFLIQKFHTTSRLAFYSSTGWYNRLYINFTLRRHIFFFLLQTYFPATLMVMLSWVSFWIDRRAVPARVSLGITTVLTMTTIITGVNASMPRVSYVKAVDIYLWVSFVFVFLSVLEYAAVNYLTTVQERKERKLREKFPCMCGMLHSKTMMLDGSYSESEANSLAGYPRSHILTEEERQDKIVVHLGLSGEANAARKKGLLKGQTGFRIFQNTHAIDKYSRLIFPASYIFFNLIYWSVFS
Assay: Two-electrode voltage-clamp, co-application of ligand with GABA EC50 at GABA-ρ2 receptors (additive/inhibition)
Format: cell-based
Details: oocytes

Recorded % of GABA EC50 response when co-applied with 10 µM ligand, per entry:
- compound: "O=C(O)C1=CCNCC1 [Isoguvacine, isoguvacine]"
  endpoint.result: "110 ± 4.3%"
- compound: "NCc1cc(=O)[nH]o1 [Muscimol, muscimol]"
  endpoint.result: "107.9 ± 3.1%"
- compound: "O=C(O)Cc1c[nH]cn1 [Imidazole-4-acetic acid, imidazole-4-acetic acid]"
  endpoint.result: "86.25 ± 3.5%"

Continue with the compound presented below.
QUERY: Which measured % of GABA EC50 response when co-applied with 10 µM ligand value corresponds to NC/C=C/C(=O)O [TACA] ?
RESULT: 137.5%

----------
Biological target: GABA-ρ2 receptors (Homo sapiens, UniProt P28476)
Construct: expressed in transfected cells; host or cells: Xenopus laevis oocytes injected with cRNA
Assay: Two-electrode voltage-clamp, co-application of ligand with GABA EC50 at GABA-ρ2 receptors (additive/inhibition)
Assay type: cell-based
Details: oocytes
value.type: % of GABA EC50 response when co-applied with 1 µM ligand (%)
Give bare numbers, in %.

- compound.smiles: "NCCCCC(=O)O"
  system.tested: "GABA-ρ2 receptors (Homo sapiens, UniProt P28476)"
  unit.text: "%"
  endpoint.result: 92

Hey, can you go through the list below and give me % of GABA EC50 response when co-applied with 1 µM ligand for every item?
1. NCc1cc(=O)[nH]o1
2. O=C(O)C1=CCNCC1
3. NC/C=C/C(=O)O

RESULT:
1: 106.9; 2: 106.8; 3: 118.4

Hey, can you go through the list below and give me % of GABA EC50 response when co-applied with 1 µM ligand for every item?
1. O=C(O)Cc1c[nH]cn1
2. NCCC(=O)O

RESULT:
[94.2, 108.9]
